For each record, write down the corresponding LD50.
# MEASUREMENT NOTES: Acute toxicity, intravenous (once), ddY mice
# Format: in vivo
# SETUP CONDITIONS: mouse, in vivo, iv, formulated per Preparation Example

Find the measured LD50 of COC1C(O)C(C)OC(OC2C(Oc3cccc4c(OC(=O)C(C)(C)C)c5c(=O)oc6ccc(C)c7c(=O)oc(c34)c5c67)OC(C)C3OC(c4ccccc4)OC32)C1O (stereo not shown) [Compound No. 170] and report it.
≥ 40 mg/kg

Find the measured LD50 of COC1C(O)C(C)OC(OC2C(Oc3cccc4c(OC(=O)C(C)CNC(=O)C(F)(F)F)c5c(=O)oc6ccc(C)c7c(=O)oc(c34)c5c67)OC(C)C3OC(C)(C)OC32)C1O (stereo not shown) [compound 85] and report it.
≥ 100 mg/kg

Find the measured LD50 of CO[C@H]1[C@@H](O)[C@@H](C)O[C@H](O[C@H]2[C@H](Oc3cccc4c(OC(=O)C=C(C)C(F)(F)F)c5c(=O)oc6ccc(C)c7c(=O)oc(c34)c5c67)O[C@H](C)[C@@H]3OC(C)(C)O[C@@H]32)[C@@H]1O [compound 198] and report it.
≥ 80 mg/kg

Find the measured LD50 of COC1C(O)C(C)OC(OC2C(Oc3cccc4c(OC(=O)CCNC=O)c5c(=O)oc6ccc(C)c7c(=O)oc(c34)c5c67)OC(C)C3OC(c4cccc(Cl)c4)OC32)C1O (stereo not shown) [compound 90] and report it.
≥ 30 mg/kg

Find the measured LD50 of COC1C(O)C(C)OC(OC2C(Oc3cccc4c(OC(=O)C(C)CNC(=O)C(F)(F)F)c5c(=O)oc6ccc(C)c7c(=O)oc(c34)c5c67)OC(C)C3OC(c4ccccc4)OC32)C1O (stereo not shown) [Compound No. 12] and report it.
≥ 40 mg/kg

Find the measured LD50 of COC1C(O)C(C)OC(OC2C(Oc3cccc4c(OC(=O)CCN5CCCC5)c5c(=O)oc6ccc(C)c7c(=O)oc(c34)c5c67)OC(C)C3OC(c4ccccc4)OC32)C1O (stereo not shown) [Compound No. 9] and report it.
≥ 40 mg/kg

Find the measured LD50 of COC1C(O)C(C)OC(OC2C(Oc3cccc4c(OC(=O)CCNC=O)c5c(=O)oc6ccc(C)c7c(=O)oc(c34)c5c67)OC(C)C3OC(c4cccc(C(F)(F)F)c4)OC32)C1O (stereo not shown) [Compound No. 52] and report it.
≥ 80 mg/kg

Find the measured LD50 of COC1C(O)C(C)OC(OC2C(Oc3cccc4c(OC(=O)CCCCCCCNC(=O)C(F)(F)F)c5c(=O)oc6ccc(C)c7c(=O)oc(c34)c5c67)OC(C)C3OC(C)(C)OC32)C1O (stereo not shown) [compound 99] and report it.
≥ 100 mg/kg

Find the measured LD50 of COC1C(O)C(C)OC(OC2C(Oc3cccc4c(OC(=O)CCCNC(=O)OCc5ccccc5)c5c(=O)oc6ccc(C)c7c(=O)oc(c34)c5c67)OC(C)C3OC(C)(C)OC32)C1O (stereo not shown) [compound 109] and report it.
≥ 100 mg/kg

Find the measured LD50 of COC1C(O)C(C)OC(OC2C(Oc3cccc4c(OC(=O)CCCNC(=O)OCc5ccccc5)c5c(=O)oc6ccc(C)c7c(=O)oc(c34)c5c67)OC(C)C3OC(c4ccccc4)OC32)C1O (stereo not shown) [compound 76] and report it.
≥ 40 mg/kg

* * *

For each record, write down the corresponding LD50.
# MEASUREMENT NOTES: Acute toxicity, intravenous (once), ddY mice
# Type: in vivo
# SETUP CONDITIONS: mouse, in vivo, iv, formulated per Preparation Example

Find the measured LD50 of COC1C(O)C(C)OC(OC2C(Oc3cccc4c(OC(=O)C(C)OCc5ccccc5)c5c(=O)oc6ccc(C)c7c(=O)oc(c34)c5c67)OC(C)C3OC(c4ccccc4)OC32)C1O (centres unmarked) [Compound No. 151] and report it.
≥ 40 mg/kg

Find the measured LD50 of COC1C(O)C(C)OC(OC2C(Oc3cccc4c(OC(=O)CCCCCCCNC(=O)C(F)(F)F)c5c(=O)oc6ccc(C)c7c(=O)oc(c34)c5c67)OC(C)C3OC(c4cccc(F)c4)OC32)C1O (centres unmarked) [Compound No. 64] and report it.
≥ 80 mg/kg

Find the measured LD50 of COC1C(O)C(C)OC(OC2C(Oc3cccc4c(OC(=O)CCCO)c5c(=O)oc6ccc(C)c7c(=O)oc(c34)c5c67)OC(C)C3OC(c4ccccc4)OC32)C1O (centres unmarked) [Compound No. 147] and report it.
≥ 40 mg/kg

Find the measured LD50 of COC1C(O)C(C)OC(OC2C(Oc3cccc4c(OC(=O)CCS(C)(=O)=O)c5c(=O)oc6ccc(C)c7c(=O)oc(c34)c5c67)OC(C)C3OC(c4ccccc4)OC32)C1O (centres unmarked) [Compound No. 168] and report it.
≥ 40 mg/kg

Find the measured LD50 of COC1C(O)C(C)OC(OC2C(Oc3cccc4c(OC(=O)CCCCCNC(=O)OCc5ccccc5)c5c(=O)oc6ccc(C)c7c(=O)oc(c34)c5c67)OC(C)C3OC(C)(C)OC32)C1O (centres unmarked) [Compound No. 111] and report it.
≥ 100 mg/kg

* * *

# MEASUREMENT NOTES: Acute toxicity, intravenous (once), ddY mice
# Format: in vivo
# SETUP CONDITIONS: mouse, in vivo, iv, formulated per Preparation Example
For each record, write down the corresponding LD50.

Find the measured LD50 of COC1C(O)C(C)OC(OC2C(Oc3cccc4c(OC(=O)CCC(C)=O)c5c(=O)oc6ccc(C)c7c(=O)oc(c34)c5c67)OC(C)C3OC(c4cccc(C(F)(F)F)c4)OC32)C1O (stereo not drawn) [Compound No. 162] and report it.
≥ 80 mg/kg

Find the measured LD50 of CO[C@H]1[C@@H](O)[C@@H](C)O[C@H](O[C@H]2[C@H](Oc3cccc4c(OC(=O)CCCCl)c5c(=O)oc6ccc(C)c7c(=O)oc(c34)c5c67)O[C@H](C)[C@@H]3OC(c4ccccc4)O[C@@H]32)[C@@H]1O (stereo partly drawn) [compound 214] and report it.
≥ 80 mg/kg

Find the measured LD50 of COC1C(O)C(C)OC(OC2C(Oc3cccc4c(OC(=O)C(Cc5c[nH]c6ccccc56)NC(=O)OCc5ccccc5)c5c(=O)oc6ccc(C)c7c(=O)oc(c34)c5c67)OC(C)C3OC(c4ccccc4)OC32)C1O (stereo not drawn) [compound 121] and report it.
≥ 40 mg/kg

* * *

# MEASUREMENT NOTES: Acute toxicity, intravenous (once), ddY mice
# Format: in vivo
# SETUP CONDITIONS: mouse, in vivo, iv, formulated per Preparation Example
For each record, write down the corresponding LD50.

Find the measured LD50 of COC1C(O)C(C)OC(OC2C(Oc3cccc4c(OC(=O)CC(C)NC(=O)C(F)(F)F)c5c(=O)oc6ccc(C)c7c(=O)oc(c34)c5c67)OC(C)C3OC(c4ccccc4)OC32)C1O (stereo not drawn) and report it.
≥ 40 mg/kg

Find the measured LD50 of COC1C(O)C(C)OC(OC2C(Oc3cccc4c(OC(=O)CCNC(=O)OCc5ccccc5)c5c(=O)oc6ccc(C)c7c(=O)oc(c34)c5c67)OC(C)C3OC(c4cccc(F)c4)OC32)C1O (stereo not drawn) and report it.
≥ 40 mg/kg

Find the measured LD50 of COC1C(O)C(C)OC(OC2C(Oc3cccc4c(OC(=O)CC(C)NC(=O)C(F)(F)F)c5c(=O)oc6ccc(C)c7c(=O)oc(c34)c5c67)OC(C)C3OC(c4ccccc4Cl)OC32)C1O (stereo not drawn) and report it.
≥ 80 mg/kg

Find the measured LD50 of COC1C(O)C(C)OC(OC2C(Oc3cccc4c(OC(=O)C(C)CN)c5c(=O)oc6ccc(C)c7c(=O)oc(c34)c5c67)OC(C)C3OC(c4ccccc4)OC32)C1O (stereo not drawn) and report it.
≥ 40 mg/kg

Find the measured LD50 of C/C=C/C(=O)Oc1c2cccc(O[C@@H]3O[C@H](C)[C@@H]4OC(C)(C)O[C@@H]4[C@H]3O[C@H]3O[C@H](C)[C@H](O)[C@H](OC)[C@H]3O)c2c2oc(=O)c3c(C)ccc4oc(=O)c1c2c43 and report it.
≥ 80 mg/kg

Find the measured LD50 of COC1C(O)C(C)OC(OC2C(Oc3cccc4c(OC(=O)C(C)CNC(=O)c5ccccc5)c5c(=O)oc6ccc(C)c7c(=O)oc(c34)c5c67)OC(C)C3OC(c4ccccc4)OC32)C1O (stereo not drawn) and report it.
≥ 40 mg/kg

Find the measured LD50 of COC1C(O)C(C)OC(OC2C(Oc3cccc4c(OC(=O)CC(C)C)c5c(=O)oc6ccc(C)c7c(=O)oc(c34)c5c67)OC(C)C3OC(C)(C)OC32)C1O (stereo not drawn) and report it.
≥ 80 mg/kg

Find the measured LD50 of COC1C(O)C(C)OC(OC2C(Oc3cccc4c(OC(=O)CCNC(C)=O)c5c(=O)oc6ccc(C)c7c(=O)oc(c34)c5c67)OC(C)C3OC(C)(C)OC32)C1O (stereo not drawn) and report it.
≥ 100 mg/kg

Find the measured LD50 of COC1C(O)C(C)OC(OC2C(Oc3cccc4c(OC(=O)CC(C)CC(C)(C)C)c5c(=O)oc6ccc(C)c7c(=O)oc(c34)c5c67)OC(C)C3OC(c4ccccc4)OC32)C1O (stereo not drawn) and report it.
≥ 80 mg/kg

Data credit: patent US4760136A
